Measured kobs1, listed per entry.
target: L25I PETNR (Enterobacter cloacae, UniProt P71278, L26I); details: 40 °C; 10 mM NADPH or 25 mM NADH; pH 7.0
Sequence (P71278 entry or part of it L26I): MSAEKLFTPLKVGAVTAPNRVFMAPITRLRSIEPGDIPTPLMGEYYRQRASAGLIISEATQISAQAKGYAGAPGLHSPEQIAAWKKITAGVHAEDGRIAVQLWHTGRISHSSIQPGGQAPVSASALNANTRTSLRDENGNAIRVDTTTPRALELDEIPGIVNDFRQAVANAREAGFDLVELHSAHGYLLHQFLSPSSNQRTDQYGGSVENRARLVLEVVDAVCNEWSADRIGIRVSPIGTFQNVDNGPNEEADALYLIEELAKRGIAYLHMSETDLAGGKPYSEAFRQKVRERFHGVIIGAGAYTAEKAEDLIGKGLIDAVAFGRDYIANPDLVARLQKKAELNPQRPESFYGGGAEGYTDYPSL
Kindly provide the numeric value in s⁻¹ only, without the unit symbol.

Examples from the recorded data:
[2H][C@@H]1C=CN([C@@H]2O[C@H](COP(=O)(O)OP(=O)(O)OC[C@H]3O[C@@H](n4cnc5c(N)ncnc54)[C@H](OP(=O)(O)O)[C@@H]3O)[C@@H](O)[C@H]2O)C=C1C(N)=O [(R)-[4-^2H]-NADPH]    8.66
NC(=O)C1=CN([C@@H]2O[C@H](COP(=O)(O)OP(=O)(O)OC[C@H]3O[C@@H](n4cnc5c(N)ncnc54)[C@H](OP(=O)(O)O)[C@@H]3O)[C@@H](O)[C@H]2O)C=CC1    49.82

[ask] What kobs1 appears in the records for this molecule with L25I PETNR (Enterobacter cloacae, UniProt P71278, L26I)? [2H][C@@H]1C=CN([C@@H]2O[C@H](COP(=O)(O)OP(=O)(O)OC[C@H]3O[C@@H](n4cnc5c(N)ncnc54)[C@H](O)[C@@H]3O)[C@@H](O)[C@H]2O)C=C1C(N)=O [(R)-[4-^2H]-NADH]
[reply] 0.604

[ask] What kobs1 appears in the records for this molecule with L25I PETNR (Enterobacter cloacae, UniProt P71278, L26I)? NC(=O)C1=CN([C@@H]2O[C@H](COP(=O)(O)OP(=O)(O)OC[C@H]3O[C@@H](n4cnc5c(N)ncnc54)[C@H](O)[C@@H]3O)[C@@H](O)[C@H]2O)C=CC1
[reply] 4.26
